Assignment: determine reported inhibition at 50 µM for the given compounds.
# system_tested: KLK7 (Homo sapiens, UniProt P49862)
# Sequence (P49862 30-253): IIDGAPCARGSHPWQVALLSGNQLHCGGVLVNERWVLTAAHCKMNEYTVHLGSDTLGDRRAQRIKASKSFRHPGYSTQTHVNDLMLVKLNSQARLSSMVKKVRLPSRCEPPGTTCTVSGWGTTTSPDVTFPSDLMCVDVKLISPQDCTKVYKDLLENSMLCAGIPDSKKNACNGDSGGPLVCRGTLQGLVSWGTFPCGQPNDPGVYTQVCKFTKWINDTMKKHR
# test_details: KLK7 enzyme inhibition assay, fluorogenic substrate Suc-Leu-Leu-Val-Tyr-AMC
# Format: biochemical
# assay_context: 50 μM; 37° C., 15 min of incubation, pH 8
# Protocol: Kallikreins KLK5, KLK7 and KLK14 activities were determined by monitoring the hydrolysis of the appropriate fluorogenic substrate (λexc=355, λem=460 nm) for 15 min at 37° C. in the presence of the untreated kallikrein (control) or kallikrein that had been incubated with a test compound. […] Initial rates determined in control experiments (V0) were considered to be 100% of the peptidase activity; initial rates below 100% were considered to be inhibitions. […]
Answers are plain numbers, in %.

Solved cases below.
O=C(Oc1ccccc1Cl)c1cc2cc(O)ccc2oc1=O ... 35
O=C(Oc1ccc(Cl)cc1)c1cc2cc(CF)ccc2oc1=O ... 30
O=C(Oc1ccc(I)cc1)c1cc2cc(CCl)ccc2oc1=O ... 47
CC(=O)OCc1ccc2oc(=O)c(C(=O)Oc3ccccc3Cl)cc2c1 ... 42
O=C(Oc1ccccc1)c1cc2cc(O)c(O)cc2oc1=O ... 100
O=C(Oc1ccc2ccccc2c1)c1cc2ccccc2oc1=O ... 30
O=C(Oc1cccc2ccccc12)c1cc2ccccc2oc1=O ... 53

Prompt: For O=C(Oc1ccccc1)c1cc2cc(O)ccc2oc1=O , what is its reported inhibition at 50 µM?
Completion: 25

---

Assignment: determine reported inhibition at 100 µM for the given molecules.
# system_tested: KLK14 (Homo sapiens, UniProt Q9P0G3)
# Sequence (Q9P0G3 41-267): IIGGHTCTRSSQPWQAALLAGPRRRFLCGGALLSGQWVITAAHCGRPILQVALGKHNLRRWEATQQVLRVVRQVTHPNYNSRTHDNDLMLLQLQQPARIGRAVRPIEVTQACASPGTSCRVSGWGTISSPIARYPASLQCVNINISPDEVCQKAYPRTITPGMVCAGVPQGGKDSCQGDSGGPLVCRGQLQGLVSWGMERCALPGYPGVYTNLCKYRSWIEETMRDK
# test_details: KLK14 enzyme inhibition assay, fluorogenic substrate Boc-Val-Pro-Arg-AMC
# Format: biochemical
# assay_context: 100 μM; 37° C., 15 min of incubation, pH 8
One number for each entry, in %.

Solved cases below.
NC(=O)c1ccccc1OC(=O)c1cc2cc(CCl)ccc2oc1=O [IK3] ... 77
O=C(Oc1cc(F)ccc1Br)c1cc2cc(CCl)ccc2oc1=O [CFL15] ... 45
O=C(Oc1cccc(Br)c1)c1cc2cc(CCl)ccc2oc1=O [LP53] ... 41
O=C(Oc1ccccc1Cl)c1cc2cc(CCl)ccc2oc1=O [MFS36] ... 100

Batch request: inhibition at 100 µM for each of the following molecules.
1. O=C(Oc1ccccc1[N+](=O)[O-])c1cc2cc(CCl)ccc2oc1=O [LP60]
2. CCOC(=O)c1cc2cc(CCl)ccc2oc1=O [MFS3]
3. O=C(Oc1c(Cl)cccc1Cl)c1cc2cc(CCl)ccc2oc1=O [LP72]
4. O=C(Oc1ccccc1I)c1cc2cc(CCl)ccc2oc1=O [LP15]
5. COC(=O)c1ccccc1OC(=O)c1cc2cc(COC(C)=O)ccc2oc1=O [IK8]
6. O=C(Sc1ccccc1)c1cc2cc(CCl)ccc2oc1=O [LP41]

Completion:
1: 46; 2: 48; 3: 50; 4: 35; 5: 64; 6: 67

Batch request: inhibition at 100 µM for each of the following molecules.
1. CC(=O)c1cc2cc(C)ccc2oc1=O [Compound D9]
2. CCOC(=O)c1cc2cc(C)ccc2oc1=O [Compound D5]
3. O=C(Oc1nccc2ccccc12)c1cc2ccccc2oc1=O [CFL33]
4. O=C(Oc1cccnc1)c1cc2cc(CCl)ccc2oc1=O [MFS33]
5. O=C(Oc1cccc(F)c1)c1cc2cc(CCl)ccc2oc1=O [LP51]
6. O=C(Oc1cc([N+](=O)[O-])ccc1[N+](=O)[O-])c1cc2cc(CCl)ccc2oc1=O [CFL21]

Completion:
1: 40; 2: 38; 3: 61; 4: 60; 5: 30; 6: 43

Batch request: inhibition at 100 µM for each of the following molecules.
1. CCOC(=O)c1cc2cc(COC(C)=O)ccc2oc1=O [LP43]
2. O=C(Oc1cc(F)ccc1F)c1cc2ccccc2oc1=O [CFL7]
3. COC(=O)c1ccc(OC(=O)c2cc3cc(CCl)ccc3oc2=O)cc1 [IK13]
4. COC(=O)c1cccc(OC(=O)c2cc3cc(CCl)ccc3oc2=O)c1 [IK2]
5. O=C(Oc1cc(F)ccc1[N+](=O)[O-])c1cc2cc(CCl)ccc2oc1=O [CFL16]

Completion:
1: 49; 2: 33; 3: 72; 4: 67; 5: 73

Batch request: inhibition at 100 µM for each of the following molecules.
1. O=C(Oc1cccc(Cl)c1)c1cc2cc(CCl)ccc2oc1=O [LP8]
2. O=C(Oc1ccccc1)c1cc2cc(CCl)ccc2oc1=O [MFS7]
3. Cc1cc(OC(=O)c2cc3cc(CCl)ccc3oc2=O)ccc1Cl [MFS35]
4. O=C(Oc1cccc(I)c1)c1cc2cc(CCl)ccc2oc1=O [LP14]

Completion:
40
45
71
70
